target: DCN1 (Homo sapiens (Human)); assay: TR-FRET binding assay (biotin-DCN1 / Ac-UBE2M12-AlexaFluor488); conditions: mean ± SD (n); read-out: DCN1_TRFRET Mean EC50
Sequence (Q96GG9 whole entry): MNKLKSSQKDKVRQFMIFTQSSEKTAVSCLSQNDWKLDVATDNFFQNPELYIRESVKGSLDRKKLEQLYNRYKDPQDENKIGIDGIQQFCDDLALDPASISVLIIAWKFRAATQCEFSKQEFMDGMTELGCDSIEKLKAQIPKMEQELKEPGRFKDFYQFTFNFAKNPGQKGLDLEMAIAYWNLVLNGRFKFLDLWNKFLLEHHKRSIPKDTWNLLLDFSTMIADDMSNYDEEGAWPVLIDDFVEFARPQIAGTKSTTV
Readout Type: pEC50
# log scale: pEC50 equals minus log10 of the concentration in mol/L

pEC50 recorded for this compound, CCCn1nc(C)c2c1N(C)C(=O)[C@@H](NC(=O)c1cccc(C)c1)[C@H]2c1ccc(F)cc1 , is 6.23

pEC50 recorded for this compound, CCN1C(=O)[C@@H](NC(=O)c2cccc([N+](=O)[O-])c2)[C@@H](c2ccc(F)cc2)c2c(C)nn(-c3ccccc3)c21 , is 5.70

Field pEC50 (entry CCN1C(=O)[C@@H](NC(=O)c2cccc(C(F)(F)F)c2)[C@@H](c2ccc(F)cc2)c2c(CNS(=O)(=O)NC(=O)OC(C)(C)C)nn(-c3ccccc3)c21 ) reads 6.71

The compound identified as CCN1C(=O)[C@@H](NC(=O)c2cccc(C(F)(F)F)c2)[C@@H](c2ccc(F)cc2)c2c(CNC(=O)CCCC[C@@H]3SC[C@@H]4NC(=O)N[C@@H]43)nn(-c3ccccc3)c21 registered its pEC50 at 6.91

Field pEC50 (entry CCN1C(=O)[C@@H](NC(=O)c2cccc(C(F)(F)F)c2)[C@@H](c2cncs2)c2c(C)nn(-c3ccccc3)c21 ) reads 5.72

* * *

target: UniProtKB Q96GG9; experiment: TR-FRET binding assay (biotin-DCN1 / Ac-UBE2M12-AlexaFluor488); conditions: mean ± SD (n); read-out: DCN1_TRFRET Mean EC50
Readout Type: pEC50
Keep in mind that pEC50 stands for -log10 of concentration in molar terms.

Measured pEC50 of CCN1C(=O)[C@@H](NC(=O)c2cccc(C)c2)[C@@H](c2ccc(F)nc2)c2c(C)nn(-c3ccccc3)c21 : 6.59

The reported pEC50 of the compound C#CCOCc1nn(-c2ccccc2)c2c1[C@H](c1ccc(F)cc1)[C@H](NC(=O)c1cccc(C)c1)C(=O)N2CC was 6.77

Input COCN1C(=O)[C@@H](NC(=O)c2cccc(C)c2)[C@@H](c2ccc(F)cc2)c2c(C)nn(-c3ccccc3)c21 . Output pEC50: 6.31

Per the record, Cc1nn(-c2ccccc2)c2c1[C@H](c1ccc(F)cc1)[C@H](NC(=O)c1cccc(C(F)(F)F)c1)C(=O)N2C has pEC50 of 6.03

The compound identified as CCN1C(=O)[C@@H](NC(=O)c2cccc(C(F)(F)F)c2)[C@@H](c2ccc(F)nc2)c2c(CO)nn(-c3ccccc3)c21 registered its pEC50 at 6.80

Record CCN1C(=O)[C@@H](NC(=O)c2cccc(C(F)(F)F)c2)[C@@H](c2ccc(F)nc2)c2c(CN)nn(-c3ccccc3)c21 , field pEC50: 6.87

Just so you know, measured pEC50 for CCN1C(=O)[C@@H](NC(=O)c2cccc(C)c2)[C@@H](c2ccc(F)cc2)c2c(CO)nn(-c3ccccc3)c21 came out at 6.76

Documented pEC50 of CCN1C(=O)[C@@H](NC(=O)c2cccc(-c3ccccc3)c2)[C@@H](c2ccc(F)cc2)c2c(C)nn(-c3ccccc3)c21 : 5.88

Value of measured pEC50 for the entry CCN1C(=O)[C@@H](N(CC)C(=O)c2cccc(C)c2)[C@@H](c2ccc(F)cc2)c2c(C)nn(-c3ccccc3)c21 : 5.58

Value of pEC50 reported for the compound CCN1C(=O)[C@@H](NC(=O)c2cccc(C(F)(F)F)c2)[C@@H](c2ccc(F)cc2)c2c(CN3CCCC3)nn(-c3ccccc3)c21 is 7.08

Reported pEC50 ( CCN1C(=O)[C@@H](NC(=O)c2cccc(C(C)C)c2)[C@@H](c2ccc(F)cc2)c2c(C)nn(-c3ccccc3)c21 ) = 6.33

The reported pEC50 of the compound Cc1cccc(C(=O)N[C@@H]2C(=O)N(CC(F)(F)F)c3c(c(C)nn3-c3ccccc3)[C@@H]2c2ccc(F)cc2)c1 was 5.15

Note to self: pEC50 recorded for CCN1C(=O)[C@@H](NC(=O)c2cccc(C(F)(F)F)c2)[C@@H](c2ccc(F)cc2)c2c(CN3CCN(CC(F)(F)F)CC3)nn(-c3ccccc3)c21 was 6.76

In plain terms, CCN1C(=O)[C@@H](NC(=O)c2cccc(C(F)(F)F)c2)[C@@H](c2ccc(F)cc2)c2c(CNC(=O)CCOCCOCCNC(=O)CCCC[C@@H]3SC[C@@H]4NC(=O)N[C@@H]43)nn(-c3ccccc3)c21 has a documented pEC50 of 7.05

Lab note: CC(=O)CN1C(=O)[C@@H](NC(=O)c2cccc(C)c2)[C@@H](c2ccc(F)cc2)c2c(C)nn(-c3ccccc3)c21 gave pEC50 of 5.15

get_value(item= CCN1C(=O)[C@@H](NC(=O)c2cccc(C)c2)[C@@H](c2ccc(F)cc2)c2c(C)nn(C(C)C)c21 , readout=pEC50) returns 6.33

Consider Cc1cccc(C(=O)N[C@@H]2C(=O)N(C)c3c(c(C)nn3C(C)(C)C)[C@@H]2c2ccc(F)cc2)c1 . Its measured pEC50 is 5.63

// field: pEC50; key: CCN1C(=O)[C@@H](NC(=O)c2cccc(C(F)(F)F)c2)[C@@H](c2ccc(F)cc2)c2c(CN(C)C)nn(-c3ccccc3)c21 ; value = 7.04

For reference, reported pEC50 for CCN1C(=O)[C@@H](NC(=O)c2cccc(C(F)(F)F)c2)[C@@H](c2ccc(F)cc2)c2c(COC(C)=O)nn(-c3ccccc3)c21 stands at 6.94

The compound identified as CCN1C(=O)[C@@H](NC(=O)c2cccc(C(F)(F)F)c2)[C@@H](c2ccc(F)cc2)c2c(CNCCN)nn(-c3ccccc3)c21 registered its pEC50 at 6.90

The compound identified as CCN1C(=O)[C@@H](NC(=O)c2cccc(Br)c2)[C@@H](c2ccc(F)cc2)c2c(C)nn(-c3ccccc3)c21 registered its pEC50 at 6.31

Record CCN1C(=O)[C@@H](NC(=O)c2cc(C)cc(F)c2)[C@@H](c2ccc(F)cc2)c2c(C)nn(-c3ccccc3)c21 . Reported pEC50: 5.63

The value of pEC50 measured for the compound CCN1C(=O)[C@@H](NC(=O)c2cccc(C)c2)[C@@H](c2ccc(F)cc2)c2c(C)nn(C3CCCCC3)c21 turned out to be 6.08
